experimental_target: RSV F on RSV-A2 virus (Respiratory syncytial virus (RSV-A2))
test_method_notes: cell-based or functional assay
Hi there, I'd appreciate the recorded Neutralization IC50 (RSV subtype A) for every entry that follows.

Here's what some known entries look like.
binder	Neutralization IC50 (RSV subtype A)
ADI-41250 (antibody, V domains shown) VH: QVQLQQWGAGLLKPSETLSLTCAVSGESLTGYFWSWIRQPPGKGLEWIGEVSHSGSTNYNPSLKSRVTMSVDTSKTQFSLKLNSVTAADTAVYYCARGYDYWSGTARYFDYWGQGILVTVSS VL: QPVLTQPASVSGSPGQSITISCTGTSSDVGGYNYVSWYQQHPGKAPKLMIYDVSNRPSGVSSRFSGSKSGNTASLTISGLQAEDEGDYYCSSYRSSTTSRVFGGGTKVTVL	> 25 µg/mL
ADI-41343 (antibody, V domains shown) VH: EVQLVESGGGLVKPGGSLRLSCAASGFTFSSYYMNWVRQAPGKGLEWVSSISGGSSYISYADSVKGRFTISRDNAKNSLYLQMNSLRAEDTAVYYCARVDTPMVRGYYFDYWGQGTLVTVSS VL: QSVLTQPPSVSGAPGRRVTISCTGSSSNIGAGYDVHWYQQLPGTAPKLLIFANSNRPSGVPDRFSGSKSGTSASLAITGLQAEDEADYYCQSYDSSLSGSVFGGGTKVTVL	0.177 µg/mL

Now for the binder whose Neutralization IC50 (RSV subtype A) we want.
Neutralization IC50 (RSV subtype A) recorded for this binder, ADI-41273 (antibody, V domains shown) VH: EVQLLESGGDLVRPGGSLRLSCTASGFSFSSSEMNWVRQAPGKGLEWVASINSGGDDIYYADSVKGRFTISRDNAKNSLSLQMDSLRAEDTALYYCARSRSGYSSGWSRFFGNWGQGTLVTVSS VL: QSALTQPRSVSGSPGQSVTISCTGTISDIGAYNYVSWYQQHPGKAPKVMIYDVSKRPSGVPDRFSGSKSGFTASLTISGLQAEDEADYYCCSYAGRWVFGGGTKLTVL , is > 25 µg/mL

Reference source: patent US20260258115A1
